All figures here come from PubChem BioAssay (NCI).

# Test system: M14 melanoma
# TEST_SUMMARY: NCI tumour cell line growth inhibition, 48 h; in the data active = GI50 below about 0.43 µM; inactive = the rest
// classify into 1 (yes) = active, 0 (no) = inactive

-- ask Query: recorded result category for "O=C(Nc1ccncc1)C(=O)c1cn(S(=O)(=O)c2ccc(F)cc2)c2ccccc12" in this test
-- reply 0 (no)

-- ask Please do the same for COc1cccc2c1C(=O)c1c(O)c3c(c(O)c1C2=O)C[C@](O)(C(=O)CO)C[C@H]3O[C@@H]1C[C@@H](NC(=O)CCCCCN(C)C2(c3ccc(F)cc3)CC3CCC2C3)[C@H](O)[C@@H](C)O1 (some centres not stated) as well.
-- reply 0 (no)

-- ask Now try "O=C(N[C@@H](c1ccc(Cl)c(Cl)c1)C1CNC1)c1ccc2cnccc2c1" .
-- reply 1 (yes)

-- ask Okay, and "CNCC#Cc1c(F)ccc2c1/C(=C/c1[nH]ccc1OC)C(=O)N2" ?
-- reply 1 (yes)

-- ask Try the molecule "COc1cc(Cn2c(-c3ccccc3)c(Cl)c3c2-c2oncc2CC3)cc(OC)c1"
-- reply 0 (no)

-- ask Item: "CCn1c2ccccc2c2cc(NC(=O)Nc3ccc([N+](=O)[O-])cc3C)ccc21"
-- reply 0 (no)

-- ask Could you do the same for "C[C@@H]1CC[C@@H]2[C@@H]1[C@H](OC(=O)/C=C/c1ccccc1)[C@]1(C3CCCCC3)C[C@@H](OC(=O)CO)[C@@]2(C)O1" , please?
-- reply 0 (no)

---

# System: SNB-19 CNS
# TEST_SUMMARY: NCI tumour cell line growth inhibition, 48 h
REPORTED_PROPERTY: TGI

-- ask Query: TGI; subject: "Oc1cccnc1[Se]"
-- reply > 100 µM

-- ask Same question for O=C(CC1(O)C(=O)N(Cc2ccccc2)c2ccc(F)cc21)c1ccc(C(=O)NCC2CCC3(CC2)OOC2(CCCCC2)OO3)cc1 (stereo not given) please.
-- reply 43.5 µM

-- ask Moving on to the next molecule: CN1C(=O)N(C)C2C1NN=c1s/c(=C\c3ccc(Cl)cc3Cl)c(=O)n12 (stereo not given)
-- reply > 100 µM

-- ask Continue with "CSc1nc(Nc2cccc(C(F)(F)F)c2)c2c(N)nn(C)c2n1"
-- reply > 100 µM

-- ask Further, for "Cc1ccc(NC(=O)CCc2cc(C(C)(C)C)nc(=S)[nH]2)cc1C" ?
-- reply > 100 µM

---

# Tested on: SNB-75 CNS
# TEST_SUMMARY: NCI tumour cell line growth inhibition, 48 h
So basically: TGI at 60 µM or higher? That is fulfilled. Lower than 60 µM? That is not fulfilled.

-- ask Reported TGI reaches at least 60 µM for O=C(O)CCC(NC(=O)c1ccc(Nc2nc3cc(C(F)(F)F)ccc3nc2-c2ccccc2)cc1)C(=O)O (stereo unspecified) ?
-- reply fulfilled

-- ask Consider next the molecule "COc1cc(-n2cc(-c3ccc(F)cc3)[nH]c2=O)cc(OC)c1OC" in the same way.
-- reply fulfilled

-- ask And then "Cn1ccc(C(=O)NCCN(CCNC(=O)c2ccn(C)c(=O)c2O)CCNC(=O)c2cccc(=O)n2O)c(O)c1=O" , what is it?
-- reply fulfilled

-- ask Ok, now "O=C(N[C@@H](c1ccc(Cl)c(Cl)c1)C1CNC1)c1ccc2cnccc2c1"
-- reply not fulfilled

-- ask Same lookup for "CCCCNC(=S)Nc1nc(C(=O)NNC(=S)Nc2ccccc2)cs1" , please.
-- reply fulfilled

-- ask Same lookup for "[N-]=[N+]=N[C@H]1C[C@@H](CO)O[C@H]1n1cnc2c(N)ncnc21" , please.
-- reply fulfilled

-- ask Same for "O=C(Oc1ccccn1)c1cc2cc(CCl)ccc2oc1=O"
-- reply fulfilled

-- ask Okay, and "[Cl][Hg][c]1cc[c]([Hg][Cl])o1" ?
-- reply not fulfilled

-- ask Then this molecule: "C1CN2CCN3CCN4CCN1[P+]243"
-- reply fulfilled

-- ask Try "Nc1nc(SC/C=C/c2ccccc2)c2[nH]cnc2n1" next.
-- reply fulfilled

---

# System: SK-OV-3 ovarian
# TEST_SUMMARY: NCI tumour cell line growth inhibition, 48 h
Record form. Attribute: TGI. Fill in for each entry.
Report the value in µM with no unit label.

-- ask Give TGI (SK-OV-3 ovarian) of the following compound: CC(=O)Oc1c2c(c(O)c3ccccc13)C(n1cnc3c(ncn3C3OC(CO)C4OC(C)(C)OC43)c1=N)CCC2 (stereo not drawn)
-- reply 33.1

-- ask Another: "Oc1[nH]c2ccccc2c1N=NC(=S)Nc1cccc(Cl)c1"
-- reply 61.1

-- ask And what about the compound Cc1c(N=Nc2ccc(Cl)cc2)c(-c2ccccc2)n(C2OC(CO)C(O)C(O)C2O)c(=S)c1C#N (stereo not drawn) ?
-- reply 30.6

-- ask Queued: "O=C(Nc1ccncc1)C(=O)c1cn(S(=O)(=O)c2ccc(F)cc2)c2ccccc12"
-- reply 85.9

---

# System: SK-MEL-5 melanoma
# TEST_SUMMARY: NCI tumour cell line growth inhibition, 48 h
Label criterion met when TGI is at or above 20 µM; otherwise label criterion not met.

-- ask Could you verify whether the entry CC(C)(C)c1ccc(O)c(C(O)c2ccncc2)c1 (stereo not given) shows TGI of no less than 20 µM?
-- reply criterion met

-- ask Now try "CC#CCOC(=O)c1ccccc1OC(C)=O" .
-- reply criterion met

-- ask Input CC1CN(C(=O)CN2CCC(CCCCN(C)C)CC2)c2ccccc2NC1=O (stereo not given)
-- reply criterion met

-- ask Please do the same for "[N-]=[N+]=N[C@H]1C[C@@H](CO)O[C@H]1n1cnc2c(N)ncnc21" as well.
-- reply criterion met

-- ask Item: "O=C(CSc1nc2ccccc2nc1-c1ccccc1)Nc1ccc(F)cc1"
-- reply criterion met

-- ask Also check COc1cccc2c1C(=O)c1c(O)c3c(c(O)c1C2=O)C[C@](O)(C(=O)CO)C[C@H]3O[C@@H]1C[C@@H](NC(=O)CCCCCN(C)C2(c3ccc(F)cc3)CC3CCC2C3)[C@H](O)[C@@H](C)O1 (stereo not given in full)
-- reply criterion not met

-- ask And CCC(C)OC(=O)/C(Br)=C1/OC(=O)c2ccccc2-c2ccccc21 (stereo not given) ?
-- reply criterion met

-- ask CCCN1C(=O)N(CCC)C2C1NC(=S)N2/N=C/C=C/c1ccccc1OC (stereo not given) , same question.
-- reply criterion not met

-- ask Consider next the compound "COc1ccc2cc(/C=N/NC(=O)Nc3ccccc3)ccc2c1" in the same way.
-- reply criterion met

-- ask Would you kindly repeat that for "COC(=O)c1cc2ccc(N)nc2[nH]c1=O" ?
-- reply criterion met

-- ask "O=C(Nc1ccncc1)C(=O)c1cn(S(=O)(=O)c2ccc(F)cc2)c2ccccc12" ?
-- reply criterion not met

-- ask Moving on to the next compound: COc1ccc(C(OCC2OC(n3cc(C)c(=O)[nH]c3=O)CC2n2cc(Cn3cc(Cl)c(=O)[nH]c3=O)nn2)(c2ccccc2)c2ccccc2)cc1 (stereo not given)
-- reply criterion met

-- ask Thanks! And "CCOC(=O)C(Cc1ccc(CCCC(=O)NCCC(=O)Nc2ccc3nc(C)sc3c2)cc1)C(=O)OCC" ?
-- reply criterion met

-- ask Would you kindly repeat that for "O=c1ccn([C@H]2CSC[C@@H](CO)C2)c(=O)[nH]1" ?
-- reply criterion met

-- ask Same read-out for "CCC[CH2][Sn]([Cl])([CH2]CCC)[CH2]CCC" ?
-- reply criterion not met

-- ask Continue with "O=C(c1ccccc1)c1cc2ccccc2o1"
-- reply criterion met

-- ask Try this compound too: "CCn1c2ccccc2c2cc(NC(=O)Nc3ccc([N+](=O)[O-])cc3C)ccc21"
-- reply criterion met

-- ask Also, "CC(=O)c1c(C)n([O-])c2cc(Cl)c(Cl)cc2[n+]1=O" please.
-- reply criterion met

-- ask One more compound: O=C1/C(=C/c2ccc(Cl)cc2)CCC1CCN1CCOCC1 (stereo not given)
-- reply criterion met

-- ask Another compound to look at: Nc1nc(N)c2c3c(cnc2n1)CC(c1ccccc1)CC3 (stereo not given)
-- reply criterion met

-- ask What do you get for "CCOC(=O)Nc1ccc(C)c(NC(=O)OCC)c1" ?
-- reply criterion met

-- ask Input "Cn1c(=O)c2c(nc(Cc3ccccc3)n2CC(=O)O)n(C)c1=O"
-- reply criterion met

-- ask Same for COc1cc(NS(C)(=O)=O)ccc1Nc1c2ccccc2nc2c1[nH]c1ccc(NC3OC(CO)C(O)C(O)C3O)cc12 (stereo not given)
-- reply criterion not met

-- ask Another compound to look at: "NCc1ccccc1-c1c2nc(c(-c3ccccc3CN)c3ccc([nH]3)c(-c3ccccc3CN)c3nc(c(-c4ccccc4CN)c4ccc1[nH]4)C=C3)C=C2"
-- reply criterion met

-- ask Then "O=Cc1[nH]c(=O)[nH]c(=O)c1C(=O)O" ?
-- reply criterion met

-- ask Please do the same for COC(=O)/C=C(\C)CC(O)/C=C(\C)CCC=C(C)C (stereo not given) as well.
-- reply criterion met

-- ask # iterate: "Cc1ccc(NC(=O)CC2CC2)cc1-c1ccc(C(=O)NCC2CC2)cc1"
-- reply criterion met

-- ask Next entry: CC(O)C1(CNc2cc(Cl)nc(N)n2)CCC1 (stereo not given)
-- reply criterion met

-- ask Thanks! And "CN(C)C(n1cc2c(c1)-c1ccc(Cl)cc1C(c1ccccc1F)=NC2)n1cc2c(c1)-c1ccc(Cl)cc1C(c1ccccc1F)=NC2" ?
-- reply criterion met
